Structures can show the parent of a compound that is named as a salt.
Consider compounds characterized by their pKi with human norepinephrine transporter (Homo sapiens, UniProt P23975).
Sequence (P23975 whole entry): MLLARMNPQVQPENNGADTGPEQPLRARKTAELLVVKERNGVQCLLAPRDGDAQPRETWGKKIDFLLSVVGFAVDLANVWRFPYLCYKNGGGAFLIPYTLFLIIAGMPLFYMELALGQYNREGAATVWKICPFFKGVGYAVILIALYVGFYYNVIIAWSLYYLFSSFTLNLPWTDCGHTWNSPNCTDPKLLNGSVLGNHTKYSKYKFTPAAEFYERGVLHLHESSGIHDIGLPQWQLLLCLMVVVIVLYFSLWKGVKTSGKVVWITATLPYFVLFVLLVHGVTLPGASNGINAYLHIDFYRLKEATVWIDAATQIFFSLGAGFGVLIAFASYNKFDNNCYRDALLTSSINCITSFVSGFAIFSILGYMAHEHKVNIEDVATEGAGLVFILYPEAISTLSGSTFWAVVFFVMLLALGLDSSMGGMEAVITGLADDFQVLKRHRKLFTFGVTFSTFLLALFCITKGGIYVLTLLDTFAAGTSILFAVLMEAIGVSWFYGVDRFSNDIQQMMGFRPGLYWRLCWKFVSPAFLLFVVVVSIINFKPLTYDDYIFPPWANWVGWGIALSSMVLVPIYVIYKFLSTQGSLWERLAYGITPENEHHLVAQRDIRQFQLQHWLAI
One number for each entry, as −log10 of the molar value.

Answered cases to consult:
{"compound": "NCCCNc1nc(-c2ccc(F)cc2F)c2ccccc2n1", "pKi": 7.59}
{"compound": "CN1CCN(c2nc(-c3c(F)cccc3F)c3ccc(F)cc3n2)CC1", "pKi": 7.42}
{"compound": "CN[C@H]1CCN(c2nc(-c3ccccc3F)c3ccccc3n2)C1 [Example 35, hydrochloride]", "pKi": 7.71}
{"compound": "Fc1ccc2c(-c3c(F)cccc3F)nc(N[C@@H]3CCNC3)nc2c1", "pKi": 7.30}

Let us move to another entry and its pKi.
Give its pKi value. Item: c1ccc(-c2nc(N3C4CCC3CNC4)nc3ccccc23)cc1
8.30
